# TARGET_OR_TEST_SYSTEM: 4-1BB (CD137) extracellular portion (Mus musculus)
# Sequence: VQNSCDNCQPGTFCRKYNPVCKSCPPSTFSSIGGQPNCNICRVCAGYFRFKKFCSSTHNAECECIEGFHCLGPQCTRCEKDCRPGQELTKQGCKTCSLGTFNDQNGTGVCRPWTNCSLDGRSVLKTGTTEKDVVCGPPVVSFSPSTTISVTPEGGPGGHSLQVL
# PROTOCOL_DETAILS: filter
# SETUP_CONDITIONS: 2'-F pyrimidines; alternating mouse/human selection pool
OBSERVATION_TYPE: pKd
Answers are plain numbers, as −log10 of the molar value.

### Prompt State its pKd on 4-1BB (CD137) extracellular portion (Mus musculus): GGGAGAGAGGAAGAGGGAUGGGNNNNNNNNNNNNNNNNNNNNNNNNNNNNNNNNNNNNNNNNCAUAACCCAGAGGUCGAUAGUACUGGAUCCCCCC [mouse/human 4-1BB alternating selection final pool]
### Response 6.70
